The origin of these recorded values is ChEMBL document CHEMBL5230122.

# Tested on: MCF7
# ASSAY_PROCEDURE: Antiproliferative activity against human MCF7 assessed as inhibition of cell viability incubated for 72 hrs by CCK-8 assay
# Format: functional, cell-based
# CONDITIONS: MCF7, 72 h
EXPERIMENTAL_READOUT: IC50 (nM)

INSERT INTO measurements (molecule, result_units, numeric_readout) VALUES
  ('CCC(C)N(C)C(=O)c1cc2ccccc2c(-c2ccccc2Cl)n1 (stereo unspecified)', 'nM', 5.4);

###

# Test system: PC-12
# ASSAY_PROCEDURE: Cytoprotective activity against glutamate induced-toxicity in rat PC-12 cells assessed as reduction in cell death for 24 hrs by MTT assay
# Format: functional, cell-based
# CONDITIONS: PC-12, 24 h
pIC50: −log10 of the molar value.
EXPERIMENTAL_READOUT: pIC50

INSERT INTO results (compound_string, experimental_readout, numeric_readout) VALUES
  ('CCOC(=O)C1=C(C)NC2=C(C=Nc3ccccc3N2)[C@@H]1c1ccccc1[N+](=O)[O-]', 'pIC50', 7.54);
